Below are pKi values measured for UniProtKB P28647.
pKi: −log10 of the molar value.
quantity-measured: pKi

a. CCNC(=O)[C@H]1O[C@@H](n2cnc3c(NC(=O)Cc4ccc(Cl)cc4Cl)ncnc32)[C@H](O)[C@@H]1O
b. CCNC(=O)[C@H]1O[C@@H](n2cnc3c(NC(=O)Nc4ccc(S(N)(=O)=O)cc4)ncnc32)[C@H](O)[C@@H]1O
c. CCNC(=O)[C@H]1O[C@@H](n2cnc3c(NC(=O)NCc4ccccc4)ncnc32)[C@H](O)[C@@H]1O
d. CCNC(=O)[C@H]1O[C@@H](n2cnc3c(NC(=O)N[C@@H](C)c4ccccc4)ncnc32)[C@H](O)[C@@H]1O
Please arrange the 4 compounds above from largest to smallest pKi value. A complete answer lists every label in the requested sequence.
b, c, a, d

----------
# target-entity: rat A3 adenosine receptor (Rattus norvegicus);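 also: radioligand binding on membrane homogenates, 1 h incubation at 37 °C in duplicate, gamma counting of filter-bound radioactivity, nonspecific binding defined using 200 µM NECA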
# Sequence (P28647 1-320): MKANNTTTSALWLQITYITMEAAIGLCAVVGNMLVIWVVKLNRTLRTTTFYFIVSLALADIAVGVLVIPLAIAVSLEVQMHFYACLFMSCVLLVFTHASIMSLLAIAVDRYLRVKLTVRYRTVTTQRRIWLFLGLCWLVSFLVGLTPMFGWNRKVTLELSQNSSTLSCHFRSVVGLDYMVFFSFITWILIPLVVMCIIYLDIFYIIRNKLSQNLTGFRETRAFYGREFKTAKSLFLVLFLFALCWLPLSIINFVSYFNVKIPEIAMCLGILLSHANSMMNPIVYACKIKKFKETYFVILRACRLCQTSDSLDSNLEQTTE
# test-settings: ratio of Ki (A2A) to Ki (A3), rat
quantity-measured: A2A/A3

Here is how some compounds turned out for A2A/A3.
compound	A2A/A3
CCNC(=O)[C@H]1O[C@@H](n2cnc3c(N(C(=O)Nc4ccc(Cl)cn4)C(=O)Nc4ccc(Cl)cn4)ncnc32)[C@H](O)[C@@H]1O [Compound 3o]	0.14
CCNC(=O)[C@H]1O[C@@H](n2cnc3c(NC(=O)NCc4ccccc4)ncnc32)[C@H](O)[C@@H]1O [Compound 3f]	46.8
CCNC(=O)[C@H]1O[C@@H](n2cnc3c(NC(=O)N[C@@H](C)c4ccccc4)ncnc32)[C@H](O)[C@@H]1O [Compound 3j]	9.3
CCNC(=O)[C@H]1O[C@@H](n2cnc3c(NC(=O)c4ccc(OC)cc4)ncnc32)[C@H](O)[C@@H]1O [Compound 3c]	0.28

1. CCNC(=O)[C@H]1O[C@@H](n2cnc3c(NC(=O)Nc4cc(C)on4)ncnc32)[C@H](O)[C@@H]1O [Compound 3k]
2. CCNC(=O)[C@H]1O[C@@H](n2cnc3c(NC(=O)c4ccccc4)ncnc32)[C@H](O)[C@@H]1O [Compound 3e]
3. CCNC(=O)[C@H]1O[C@@H](n2cnc3c(NC(=O)Nc4ccc(S(N)(=O)=O)cc4)ncnc32)[C@H](O)[C@@H]1O [Compound 3g]
Could you please sort these 3 entries by A2A/A3 from high to low? A complete answer lists every label in the requested sequence.
3, 1, 2
(3: 121.2, 1: 1.66, 2: 0.81)

This collection of values is drawn from patent US6048865A.
